# Tested system: SARS-CoV-2 Spike on HIV-based pseudotyped virus (Spike plasmid BEI NR52310) (SARS-CoV-2, UniProt P0DTC2 14-1273)
# Measurement description: cell-based or functional assay
Readout type: IC50 SARS-CoV2 PsV (µg/mL), IgG

INSERT INTO measurements (binder, recorded_result) VALUES
  ('mAb 349 (antibody, V domains shown, also called IgG 349) VH: EVQLLESGGGLVQPGGSLRLSCAASGFTFSNYGMHWVRQAPGKGLEWVSGISSAGSITNYADSVKGRFTISRDNSKNTLYLQMNSLRAEDTAVYYCAGNHAGTTVTSEYFQHWGQGTLVTVSS VL: DIQMTQSPSSLSASVGDRVTITCRASQSISSWLAWYQQKPGKAPKLLIYDTSNLETGVPSRFSGSGSGTDFTLTISSLQPEDFATYYCQQSYTTPWTFGQGTRLEIKR', '> 50 µg/mL'),
  ('mAb 192 (antibody, V domains shown) VH: QVQLVQSGAEVKKPGSSVKVSCKASGGTFSSYAISWVRQAPGQGLEWMGWINPNSGGANYAQKFQGRVTITADESTSTAYMELSSLRSEDTAVYYCSTYYYDSSGYSTDYWGQGTLVTVSS VL: DIVMTQSPLSLPVTPGEPASISCRSSQSLLHSNGYNYLDWYLQKPGQSPQLLIYAASSLQSGVPDRFSGSGSGTDFTLKISRVEAEDVGVYYCMQALQTPYTFGQGTKLEIKR', '> 50 µg/mL');
